Molecular target: T1, extracellular domain of human BCMA (human, UniProt Q02223 1-54)
T1 construct: amine-linked to Octet AR2G tips; also called hsBCMA; BCMA (human)
T1 sequence: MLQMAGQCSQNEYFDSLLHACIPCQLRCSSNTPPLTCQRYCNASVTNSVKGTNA
Assay: Octet BLI; Fab 200 nM
Assignment: determine reported Kd for the given binders.
Answers are plain numbers, in nM.

Consider the reported Kd for these binders:
AB200_Fab (D99D) (Fab, V domains shown) VH: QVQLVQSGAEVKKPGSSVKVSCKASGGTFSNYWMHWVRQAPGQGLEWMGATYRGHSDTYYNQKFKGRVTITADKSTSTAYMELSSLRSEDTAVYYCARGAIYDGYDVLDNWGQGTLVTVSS VL: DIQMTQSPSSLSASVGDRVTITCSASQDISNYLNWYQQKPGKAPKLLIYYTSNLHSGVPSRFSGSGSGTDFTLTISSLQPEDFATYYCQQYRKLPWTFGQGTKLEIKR	3.45
AB200_Fab + D99S (Fab, name in Kabat numbering, V domains shown) VH: QVQLVQSGAEVKKPGSSVKVSCKASGGTFSNYWMHWVRQAPGQGLEWMGATYRGHSDTYYNQKFKGRVTITADKSTSTAYMELSSLRSEDTAVYYCARGAIYSGYDVLDNWGQGTLVTVSS VL: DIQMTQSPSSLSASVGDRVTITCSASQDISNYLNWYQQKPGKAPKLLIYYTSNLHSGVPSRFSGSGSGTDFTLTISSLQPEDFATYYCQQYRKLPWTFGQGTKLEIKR	3.86

Let's switch to this binder now.
Input line: Name the reported Kd value associated with the binder AB200_Fab + D99Q (Fab, name in Kabat numbering, V domains shown) VH: QVQLVQSGAEVKKPGSSVKVSCKASGGTFSNYWMHWVRQAPGQGLEWMGATYRGHSDTYYNQKFKGRVTITADKSTSTAYMELSSLRSEDTAVYYCARGAIYQGYDVLDNWGQGTLVTVSS VL: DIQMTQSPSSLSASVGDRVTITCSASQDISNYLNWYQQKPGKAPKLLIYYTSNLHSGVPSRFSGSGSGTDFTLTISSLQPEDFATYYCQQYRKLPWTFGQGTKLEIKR
Output line: 3.06
